Source listed as patent US20120122924A1.

EXPERIMENTAL SYSTEM: recombinant, human, C-terminally-His tagged NAMPT (Homo sapiens)
EXPERIMENTAL PROTOCOL: Time-Resolved Fluorescence Resonance Energy Transfer (TR-FRET) binding assay of NAMPT
CONDITIONS USED: 6.8 nM NAMPT, 200 nM probe (Oregon Green 488-conjugated APO866), 1 nM Tb-anti-His antibody, 2-3 hours
Label t when IC50 < 200 nM; otherwise f.

These recorded examples may help you get a feel for the data.
CCC(C)CC(=O)Nc1ccc(NC(=O)N2CCc3ccccc3C2)cc1 (racemic) | t
O=C(NCCc1cccs1)c1ccc(NC(=O)N2CCc3ccc(F)cc3C2)cc1 | f
O=C(Nc1ccc(NC(=O)N2CCc3ccccc3C2)cc1)c1ccn[nH]1 | t

-- ask Input O=C(Nc1ccc(-c2noc(Cc3ccccc3)n2)cc1)N1CCc2ccccc2C1 ; condition: IC50 strictly below 200 nM. Does it hold?
-- reply f

-- ask Input CNC(=O)N1CC=C(c2ccc(NC(=O)N3CCc4ccccc4C3)cc2)CC1 ; condition: IC50 strictly below 200 nM. Does it hold?
-- reply t

-- ask Input O=C(NCCCc1ccccc1)c1ccc(NC(=O)N2CCc3ccccc3C2)nc1 ; condition: IC50 strictly below 200 nM. Does it hold?
-- reply t

-- ask Input Nc1ccc(CCC(=O)Nc2ccc(NC(=O)N3CCc4ccccc4C3)cc2)cc1 ; condition: IC50 strictly below 200 nM. Does it hold?
-- reply t

----------
EXPERIMENTAL SYSTEM: recombinant, human, C-terminally-His tagged NAMPT (Homo sapiens)
EXPERIMENTAL PROTOCOL: Time-Resolved Fluorescence Resonance Energy Transfer (TR-FRET) binding assay of NAMPT
CONDITIONS USED: 6.8 nM NAMPT, 200 nM probe (Oregon Green 488-conjugated APO866), 1 nM Tb-anti-His antibody, 2-3 hours
PROPERTY: pIC50
Numbers only, as −log10 of the molar value.

O=C(Nc1ccc(C(=O)N2CCN(c3ccccn3)CC2)cc1)N1CCc2ccccc2C1 | 7.88
O=C(Nc1ccc(NC(=O)N2CCc3ccccc3C2)cc1)C1CCCCC1 | 7.18
O=C(CCN1CCOCC1)Nc1ccc(NC(=O)N2CCc3ccccc3C2)cc1 | 6.80
O=C(Cc1ccc(NC(=O)N2CCc3ccccc3C2)cc1)NCCCc1ccccc1 | 5.99
CCCCCCNC(=O)N1CCc2ccccc2C1 | 6.06

For each listed entry, give its pIC50.
1. CN1CCN(CCC(=O)Nc2ccc(NC(=O)N3CCc4ccccc4C3)cc2)CC1
2. CC(=O)N1CC=C(c2ccc(NC(=O)N3CCc4ccccc4C3)cc2)CC1
3. CC(=O)N1CCC(C(=O)Nc2ccc(NC(=O)N3CCc4ccccc4C3)cc2)CC1

-- reply
1. 6.89
2. 7.23
3. 6.94

For each listed entry, give its pIC50.
1. CC(C)CCNC(=O)c1ccc(NC(=O)N2CCc3ccccc3C2)cn1
2. O=C(Nc1ccc(NC(=O)N2CCc3ccccc3C2)cc1)C1Cc2ccccc2O1 (racemic)

-- reply
[6.75, 8.35]

----------
EXPERIMENTAL SYSTEM: recombinant, human, C-terminally-His tagged NAMPT (Homo sapiens, UniProt P43490)
Sequence (P43490 whole entry): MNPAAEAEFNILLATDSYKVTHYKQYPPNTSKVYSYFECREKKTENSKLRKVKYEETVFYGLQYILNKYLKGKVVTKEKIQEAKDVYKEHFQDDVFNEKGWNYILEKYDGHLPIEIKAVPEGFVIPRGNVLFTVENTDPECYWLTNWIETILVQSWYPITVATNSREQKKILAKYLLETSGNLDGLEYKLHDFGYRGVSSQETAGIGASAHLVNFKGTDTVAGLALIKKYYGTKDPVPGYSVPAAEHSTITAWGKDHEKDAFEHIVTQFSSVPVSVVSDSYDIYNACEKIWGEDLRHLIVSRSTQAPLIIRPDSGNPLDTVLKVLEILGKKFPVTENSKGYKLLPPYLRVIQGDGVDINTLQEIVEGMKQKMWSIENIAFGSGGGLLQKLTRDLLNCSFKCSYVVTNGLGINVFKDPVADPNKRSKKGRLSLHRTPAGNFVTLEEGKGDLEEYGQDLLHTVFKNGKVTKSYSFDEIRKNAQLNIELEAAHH
EXPERIMENTAL PROTOCOL: Time-Resolved Fluorescence Resonance Energy Transfer (TR-FRET) binding assay of NAMPT
CONDITIONS USED: 6.8 nM NAMPT, 200 nM probe (Oregon Green 488-conjugated APO866), 1 nM Tb-anti-His antibody, 2-3 hours
Procedure: Determination of the utility of compounds having Formula (I) as binders to and inhibitors of NAMPT was performed using a Time-Resolved Fluorescence Resonance Energy Transfer (TR-FRET) binding assay. Time-Resolved Fluorescence Resonance Energy Transfer (TR-FRET) Binding Assay of NAMPT […]
PROPERTY: IC50 (nM)
Answers are plain numbers, in nM.

Here is how some molecules turned out for IC50.
CC(C)CCC(=O)Nc1ccc(NC(=O)N2CCc3ccccc3C2)cc1 | 6.16
O=C(NCCc1cccs1)c1ccc(NC(=O)N2CCc3cc(F)ccc3C2)cc1 | 45.8
O=C(NCCCc1ccccc1)c1ccc(NC(=O)N2CCc3ccccc3C2)cn1 | 286
O=C(Nc1cnn(Cc2ccccc2)c1)c1ccc(NC(=O)N2CCc3ccccc3C2)cc1 | 47.1
O=C(NCCCc1ccccc1)c1ccc(NC(=O)N2CCc3ccncc3C2)cc1 | 597
O=C(Nc1ccc(-c2cnn(CCO)c2)cc1)N1CCc2ccccc2C1 | 819

For each listed entry, give its IC50.
1. CC(C)Cn1cc(-c2ccc(NC(=O)N3CCc4ccccc4C3)cc2)cn1
2. O=C(Nc1ccc(NC(=O)N2CCc3ccccc3C2)cc1)c1cn[nH]c1

-- reply
1. 38.8
2. 203

For each listed entry, give its IC50.
1. O=C(Nc1ccc(NC(=O)N2CCc3ccccc3C2)cc1)C1CCOC1 (racemic)
2. CCn1cc(-c2ccc(NC(=O)N3CCc4ccccc4C3)cc2)cn1

-- reply
1. 196
2. 645

For each listed entry, give its IC50.
1. O=C(NCCc1cccs1)c1ccc(NC(=O)N2CCc3ccccc3C2)cc1
2. O=C(Nc1ccc(NC(=O)N2CCc3ccccc3C2)cc1)c1ccno1

-- reply
1. 178
2. 314

-- ask Param item = O=C(Nc1ccc(NC(=O)N2CCc3ccccc3C2)cc1)c1ccccc1 ; retrieve measured IC50.
-- reply 191
